Hello, the source for this data is ChEMBL document CHEMBL1201862, in case you need it.

Tested on: SNB-19
Test: NCI tumour cell line growth inhibition, 48 h
Active and inactive are the calls of the source. No stated cut-off is given here; in the data, active = GI50 up to about 1.1 µM and inactive = higher.
Tick one outcome: yes = active, no = inactive

>>> assigned_label("Cc1ccc(NC(=O)C(=O)Cc2cccc[n+]2[O-])cc1C")
"no"
>>> assigned_label("Oc1nc2cc3nc(O)c(O)nc3cc2nc1O")
"no"
>>> assigned_label("C#CC(O)/C=C/C(O)CCCC(O)CC#CC(O)C#CC(O)CCCC(O)/C=C/CCCC(=O)CCCCCCCCCCCCCCCC(O)C(O)C#CC(=O)O (centres undefined)")
"no"
>>> assigned_label("COc1cc([C@@H]2c3cc4c(cc3[C@@H](NC(=O)c3cccc(C#N)c3)C3COC(=O)[C@@H]32)OCO4)cc(OC)c1O (some centres undefined)")
"yes"
>>> assigned_label("COc1ccc(OC)c(CNc2ccc(C(=O)O)cc2)c1")
"no"

What outcome does the record of this test show for S=C(N/N=C(/c1ccccc1)c1ccccn1)N1CCCCC1 ? yes

What outcome does the record of this test show for CC/C=C\C/C=C\C1CC(=O)NCCCNCCCCN1 (centres undefined) ? no

What outcome does the record of this test show for C/C(=C(/C)c1cc[n+](C)cc1)c1cc[n+](C)cc1 ? no

---

Test system: Hs-578T
Assay: NCI tumour cell line growth inhibition, 48 h
The source made the active and inactive calls. Cut-off read from the data, not from the text of the source: active = GI50 up to about 1.1 µM and inactive = higher.
A collection of compounds and their measured GI50

>>> observed_value("Cc1cc(N2CCCCC2)nc2ccc(Cc3ccc4nc(N5CCCCC5)cc(C)c4c3)cc12")
"> 100 µM (inactive)"
>>> observed_value("C[N+]12C=CC=C1C(N1CCCC1)c1scc(-c3ccc(Br)cc3)c12 (stereo unspecified)")
"1.98 µM (inactive)"
>>> observed_value("CCN(CC)CCn1c(=O)c2ccccc2n2c3c(=O)n(C)c(=O)n(C)c3nc12")
"2.01 µM (inactive)"

State its GI50: Cc1ccc(/C(=C/C=C(C#N)C#N)Sc2cc(Cl)ccc2Cl)cc1 2.42 µM (inactive)

State its GI50: c1ccc([P+](CCCCCC[P+](c2ccccc2)(c2ccccc2)c2ccccc2)(c2ccccc2)c2ccccc2)cc1 15.3 µM (inactive)

State its GI50: C=C1C(=O)OC2(C)CCC1CC1OC1(C)CCC=C(C)CCC2O (stereo unspecified) 57.5 µM (inactive)

---

System: K562
Assay: NCI tumour cell line growth inhibition, 48 h
Active and inactive are the calls of the source. Cut-off read from the data, not from the text of the source: active = GI50 up to about 1.1 µM and inactive = higher.
Tick one outcome: T = active, F = inactive

Reference set, count: 3
>>> assigned_label("C#C[C@]1(O)[C@@H](CO)O[C@@H](n2ccc(=O)[nH]c2=O)[C@@H]1O")
"T"
>>> assigned_label("Fc1ccccc1-c1nn2c(C34CC5CC(CC(C5)C3)C4)nnc2s1")
"F"
>>> assigned_label("CC(=O)c1nc2ccccc2n1CC(=O)c1ccc([N+](=O)[O-])cc1")
"F"

// switching to the query compound
What outcome does the record of this test show for NC1C=NNC1=O (centres undefined) ? F

---

A collection of compounds and their measured GI50
Tested on: SN12C
Experiment: NCI tumour cell line growth inhibition, 48 h
Activity calls are given as the source filed them. No stated cut-off is given here; in the data, active = GI50 up to about 1.1 µM and inactive = higher.

// solved cases for GI50 follow
>>> observed_value("CCCCCCCCCCCCCC(=O)NCO")
"> 100 µM (inactive)"
>>> observed_value("COc1cc(Nc2nc3ccccc3nc2-c2cccs2)cc(OC)c1OC")
"30.9 µM (inactive)"
>>> observed_value("CC(C)(C)c1cc([Si](C)(C)C)c(C#N)c([Si](C)(C)C)c1")
"> 100 µM (inactive)"
>>> observed_value("O=C1c2ccccc2C(=O)N1c1nc(-c2ccc(Cl)cc2)cc(N2N=C(c3ccc(Br)cc3)CC2c2ccccc2)n1 (stereo unspecified)")
"2.9 µM (inactive)"
>>> observed_value("CNc1nc(SC)nc2c1c(N)nn2C")
"> 100 µM (inactive)"

Determine reported GI50 for CN1CCCN2CCN(C)CCCN(CC1)CC2 ; test system: SN12C. > 100 µM (inactive)

Determine reported GI50 for CC(C)N(C(=O)C12CC3CC(CC(C3)C1)C2)C(C)C ; test system: SN12C. > 50 µM (inactive)

Determine reported GI50 for C=C(C1=CC(=O)C(C)(C)O1)[C@@H]1CC=C([C@@H]2CC[C@H]3[C@@]2(C)CC[C@H]2C(C)(C)C(=O)[C@H](OC(=O)CC(C)(O)CC(=O)O)C[C@]32C)[C@H](O)O1 (stereo partly specified) ; test system: SN12C. 15.3 µM (inactive)

Determine reported GI50 for CCOC(=O)c1c(N2CCN(C)CC2)[nH]c(=O)c(C(c2c(Cl)cccc2Cl)c2c(O)c(C(=O)OCC)c(N3CCN(C)CC3)[nH]c2=O)c1O ; test system: SN12C. 26.3 µM (inactive)

Determine reported GI50 for CC1(C)CC(/C=C2/OC(=O)c3ccccc32)=C(C#N)C(=O)O1 ; test system: SN12C. > 100 µM (inactive)

Determine reported GI50 for CC(C)(C)OC(=O)N(CCCN)CCCCN ; test system: SN12C. > 100 µM (inactive)

---

Tested on: SK-OV-3
Test: NCI tumour cell line growth inhibition, 48 h
Active and inactive are the calls of the source. Cut-off read from the data, not from the text of the source: active = GI50 up to about 1.1 µM and inactive = higher.
measured.metric: GI50

>>> observed_value("Nc1ccc(O)c2c1C(=O)c1c(N)ccc(O)c1C2=O")
"> 100 µM (inactive)"

State its GI50: O=C1N=C(SC(SC2=NC(=O)C3(NN2)c2ccccc2-c2ccccc23)=C(SC2=NC(=O)C3(NN2)c2ccccc2-c2ccccc23)SC2=NC(=O)C3(NN2)c2ccccc2-c2ccccc23)NNC12c1ccccc1-c1ccccc12 > 10 µM (inactive)

State its GI50: CCOC1c2cc(C(C)C)c(O)c(O)c2[C@@]23CCCC(C)(C)C2C1OC3=O (some centres not stated) > 100 µM (inactive)

State its GI50: COc1ccc2nc(-c3cccs3)cc(C(O)CN3CCSCC3)c2c1 (configuration not stated) 39.6 µM (inactive)

State its GI50: COc1c(C)n(CCO)ccc1=O > 100 µM (inactive)

State its GI50: Cc1n[nH]c(=O)n1/N=C/c1ccco1 > 100 µM (inactive)

State its GI50: O=[N+]([O-])c1cc(-c2nnc(S)[nH]2)ccc1O > 100 µM (inactive)

State its GI50: COC(C)(C)C1=CCC(C)CC1 (configuration not stated) > 100 µM (inactive)

State its GI50: Cc1nc(C(N)=S)sc1C(=O)CC(=O)C(=O)Nc1cccc(Cl)c1C > 100 µM (inactive)

State its GI50: CC12CCC(/C(=N/c3ccc([N+](=O)[O-])cc3)C1=O)C2(C)C (configuration not stated) 28.4 µM (inactive)

State its GI50: c1coc(C2=Nc3cccc4cccc(c34)N2)c1 98.4 µM (inactive)

State its GI50: C=C1C(=O)C=C[C@]2(C)CC[C@H]3C(=C)C(=O)O[C@@H]3[C@@H]12 8.73 µM (inactive)

State its GI50: COc1cc(/C=C/C(=O)N[C@@H]2C(=O)N3[C@@H]2SC(C)(C)[C@@H]3C(=O)O)cc(OC)c1OC > 100 µM (inactive)

State its GI50: Cc1cccc2c1CC(C1OC(=O)c3ccccc31)C2=O (configuration not stated) > 100 µM (inactive)

State its GI50: CCC1(CC)C(=O)N(C(=O)c2ccc(C)cc2)N(C(=O)c2ccc(C)cc2)C1=O > 75 µM (inactive)

State its GI50: CC(=O)OC[C@@]12C[C@H]3C(=O)C(C)(C)C[C@H]3[C@]1(C)[C@@H](OC(C)=O)[C@]1(O)[C@H]([C@@H](OC(=O)c3ccccc3)[C@@H](C)[C@H]1OC(C)=O)[C@H]2OC(C)=O > 20 µM (inactive)

State its GI50: C=CC/N=C1\N=C(C)C(C(=O)OCC)S1 (configuration not stated) > 100 µM (inactive)

---

Test system: OVCAR-3
Test: NCI tumour cell line growth inhibition, 48 h
Active and inactive are the calls of the source. Rule as the data show it: active = GI50 up to about 1.1 µM and inactive = higher.
Tick one outcome: TRUE (active), FALSE (inactive)

>>> assigned_label("NC1=Nc2ccccc2Sc2nnc(-c3ccc(Cl)cc3)n21")
"FALSE"
>>> assigned_label("Cc1nn(C(=O)c2ccccc2O)c2c1C(c1ccc([N+](=O)[O-])cc1)SC(=N)N2 (stereo not given)")
"FALSE"
>>> assigned_label("Cc1cc2c3c(c1)S(=O)(=O)c1cc(Cl)ccc1N3CCC2")
"FALSE"

What outcome does the record of this test show for CO/C(N)=C(C#N)/N=C/c1ccccc1 ? FALSE

What outcome does the record of this test show for O=C(O)c1nc2ccc(C(F)(F)F)cc2nc1NCc1ccc(F)cc1 ? FALSE

What outcome does the record of this test show for CCCCCCCCCCCCCC(=O)O.O=CC(O)C(O)C(OC1OC(CO)C(O)C(O)C1O)C(O)CO (stereo not given) ? FALSE

What outcome does the record of this test show for CC1=CC[C@](C)(O)[C@@]2(C)CC[C@H]3C(=C(C)C)C(=O)C[C@]3(C)C[C@H]12 ? FALSE

What outcome does the record of this test show for O=C1C(C2=[N+]([O-])c3ccccc3C2=O)=[N+]([O-])c2ccccc21 ? FALSE

What outcome does the record of this test show for CC(C)C(=O)NC(=S)Nc1ccc([N+](=O)[O-])cc1C#N ? FALSE

What outcome does the record of this test show for CCOC1c2cc(C(C)C)c(O)c(O)c2[C@@]23CCCC(C)(C)C2C1OC3=O (stereo not given in full) ? FALSE

What outcome does the record of this test show for N#CCCN(c1ccc(/C=N/c2ccc(C(=O)O)cc2)cc1)S(=O)(=O)c1ccccc1 ? FALSE

What outcome does the record of this test show for O=C(CSc1nc2ccccc2c2ccccc12)c1ccccc1 ? FALSE

What outcome does the record of this test show for O=C1C2=C(c3ccccc31)C(c1ccccc1)NC(S)=N2 (stereo not given) ? FALSE

What outcome does the record of this test show for CN/C(=N\N=C1/C(=O)Nc2ccccc21)SCC(=O)c1ccc(Br)cc1 ? FALSE
